All figures here come from ChEMBL document CHEMBL3853326.

testDescription: Cytotoxicity against mouse RAW264.7 cells assessed as reduction in cell viability after 4 hrs by MTT assay
Type: toxicity
assayContext: read-out: LC50

{"structureSmilesString": "CC(C)NC(=O)N[C@H](CNC(=O)N[C@@H](CCCCN)CNC(=O)N[C@H](CNC(=O)N[C@H](CNC(=O)N[C@@H](CCCCN)CNC(=O)N[C@H](CNC(=O)N[C@@H](CCCCN)CNC(=O)N[C@H](CCC(N)=O)C(C)C)Cc1c[nH]c2ccccc12)C(C)C)Cc1c[nH]c2ccccc12)C(C)C", "CC50 at 4 h": "31.1 µg/mL"}
